Tested on: UO-31 renal
Protocol: NCI tumour cell line growth inhibition, 48 h
Recorded metric: GI50

COc1cc(C2C3=C(COC3=O)N(CCO)c3cc4c(cc32)CCC4)cc(OC)c1OC (centres undefined)	228 nM

## Task // Input: N#Cc1ccccc1C#C/C=C\C#Cc1cnccn1 . Output its GI50 only.
## Result 44000 nM

## Task // Input: COc1ccc(C2CC(c3cccc(Nc4ccnc5cc(Cl)ccc45)c3)=NN2c2ccc(Cl)cc2)cc1 (centres undefined) . Output its GI50 only.
## Result 1870 nM

## Task // Input: COc1ccc(/C=C2\CN(Cc3cn(CCCNc4ccnc5cc(Cl)ccc45)nn3)C/C(=C\c3ccc(OC)cc3)C2=O)cc1 . Output its GI50 only.
## Result 3850 nM

###

System: SN12C renal
Protocol: NCI tumour cell line growth inhibition, 48 h
Recorded metric: TGI

O=C1NC(N2CCCC(CO)C2)=N/C1=C\c1ccc(O)cc1 (stereo unspecified)	> 100 µM
COc1cc(OC)c(-c2oc3ccccc3c(=O)c2O)c(OC)c1	> 100 µM
Clc1ccc(CCn2ccc3ccccc32)c(Cl)c1	> 100 µM
O=C(CCc1nnc2s/c(=C\c3ccc(Cl)cc3Cl)c(=O)n12)Nc1cc(Cl)c(Cl)cc1Cl	> 100 µM
COC(=O)c1ccc2[nH]c3c(c2c1)CC(=O)Nc1ccccc1-3	> 100 µM
O=C(Nc1cccc(Cl)c1)c1cc2cc(N=Nc3ccc(Br)cc3)ccc2oc1=O	> 100 µM

## Task // Input: Nc1cc2[nH]c(=O)c3cc(Cl)ccc3c2cc1Cl . Output its TGI only.
## Result > 100 µM

## Task // Input: COc1ccc2[nH]c3c(C)c4ccnc(NCCCN(C)CCCNC(=O)NCCCN(C)CCCNc5nccc6c(C)c7[nH]c8ccc(OC)cc8c7c(C)c56)c4c(C)c3c2c1 . Output its TGI only.
## Result 2.91 µM

## Task // Input: CCOC(=O)C1(C/C=C\CBr)CCCCCCC1=O (stereo unspecified) . Output its TGI only.
## Result > 100 µM

## Task // Input: NC(=O)NOCC1NC(=O)NC1=O (stereo unspecified) . Output its TGI only.
## Result > 100 µM

## Task // Input: CC(C)(Oc1ccc(C2C[C@H]2Cl)cc1)C(=O)O (stereo partly specified) . Output its TGI only.
## Result > 100 µM

## Task // Input: COC(=O)C1CCC2(CC1)NC(=O)NC2=O (stereo unspecified) . Output its TGI only.
## Result > 100 µM

###

System: NCI-H226 lung
Protocol: NCI tumour cell line growth inhibition, 48 h
In this section we review reported TGI values for a set of compounds.

CN(C)/C=C/c1ccnc2c1C(=O)c1ccccc1C2=O	> 52.7 µM
NC(=O)NOCC1NC(=O)NC1=O (configuration not stated)	> 100 µM
COc1ccc(-c2nccn2-c2cc(OC)c(OC)c(OC)c2)cc1	> 100 µM
C/C(=C1/N=C(c2ccccc2)OC1=O)c1cccs1	> 100 µM
CN(C)c1ccc(/C=C/C(=O)c2ccc(Nc3nc(Nc4ccc(F)cc4)nc(Nc4ccc(Cl)cc4)n3)cc2)cc1	> 100 µM

## Task // Input: Cc1c2cccc-2c(N(C)C)cc2c1[nH]c1ccccc12 . Output its TGI only.
## Result 21.8 µM

## Task // Input: CCOC(=O)C1C(=O)C=C(c2cc(C)ccc2O)CC1c1cccc(Br)c1 (configuration not stated) . Output its TGI only.
## Result 37.3 µM

## Task // Input: O=C1CSC(c2ccc(Cl)cc2)N1c1ccc(-n2c(-c3ccccc3)nc3ccccc3c2=O)cc1 (configuration not stated) . Output its TGI only.
## Result > 100 µM

## Task // Input: COc1ccc(/C=C(\NC(=O)c2ccccc2)c2nc3ccccc3[nH]2)cc1 . Output its TGI only.
## Result > 100 µM

## Task // Input: COc1ccc(/C(C)=C(\c2ccc(Cl)cc2)c2ccc(OCCN3CCCCC3)cc2)cc1F . Output its TGI only.
## Result > 16.7 µM

## Task // Input: COC(=O)c1cc2c([nH]c3ccccc32)c(-c2nc3cc(N(S(=O)(=O)c4ccc(C)cc4)S(=O)(=O)c4ccc(C)cc4)c(OC)cc3cc2CO)n1 . Output its TGI only.
## Result > 100 µM

## Task // Input: CC1CCCC2(O1)OC1CC(=O)OC1C1=C2C(=O)c2ccccc2C1=O (configuration not stated) . Output its TGI only.
## Result 4.51 µM

All figures here come from PubChem BioAssay (NCI).
